Field: AC50. Provide a value for each of the molecules that follow.
target: Prostaglandin G/H synthase 1 (Homo sapiens, UniProt P23219); format: functional; further: assay procedure not described here
Sequence (P23219 whole entry): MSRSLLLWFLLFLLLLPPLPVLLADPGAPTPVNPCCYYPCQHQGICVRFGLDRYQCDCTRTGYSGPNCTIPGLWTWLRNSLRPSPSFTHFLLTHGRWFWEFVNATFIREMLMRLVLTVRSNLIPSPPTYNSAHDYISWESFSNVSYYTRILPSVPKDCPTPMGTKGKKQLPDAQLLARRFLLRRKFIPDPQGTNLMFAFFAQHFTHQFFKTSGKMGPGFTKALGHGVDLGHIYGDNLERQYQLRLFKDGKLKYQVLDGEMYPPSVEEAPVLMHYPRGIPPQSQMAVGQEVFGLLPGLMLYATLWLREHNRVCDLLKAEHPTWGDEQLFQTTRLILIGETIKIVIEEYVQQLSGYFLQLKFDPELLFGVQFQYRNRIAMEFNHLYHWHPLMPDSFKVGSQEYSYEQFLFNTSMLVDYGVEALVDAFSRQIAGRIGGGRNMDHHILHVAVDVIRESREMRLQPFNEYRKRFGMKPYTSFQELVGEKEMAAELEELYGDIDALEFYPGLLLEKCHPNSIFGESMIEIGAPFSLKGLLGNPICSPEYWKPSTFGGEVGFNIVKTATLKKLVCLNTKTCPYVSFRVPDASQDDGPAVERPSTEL

MOLECULE	RESULT
C(=N\NC1=NCCN1)/c1c2ccccc2c(/C=N/NC2=NCCN2)c2ccccc12	> 30 µM

For every record below, what is its AC50?
1. CC(=O)O[C@]1(C(C)=O)CC[C@H]2[C@@H]3C[C@H](C)C4=CC(=O)CC[C@]4(C)[C@H]3CC[C@@]21C [MEDROXYPROGESTERONE ACETATE]
2. CC(C)OC(=O)[C@H](C)N[P@](=O)(OC[C@H]1O[C@@H](n2ccc(=O)[nH]c2=O)[C@](C)(F)[C@@H]1O)Oc1ccccc1
3. CCc1ccc(CCOc2ccc(CC3SC(=O)NC3=O)cc2)nc1 (configuration not stated)
4. CN(C)C(=O)Oc1ccc[n+](C)c1
5. O=C(O)c1cccc(-c2noc(-c3ccccc3F)n2)c1
6. C[C@H]1O[C@H](O[C@H]2[C@H](O)[C@@H](O)[C@@H](O[C@H]3[C@H](O)[C@@H](O)C(O)O[C@@H]3CO)O[C@@H]2CO)[C@H](O)[C@@H](O)[C@@H]1N[C@H]1C=C(CO)[C@@H](O)[C@H](O)[C@H]1O (some centres not stated)

Result:
1. > 10 µM
2. > 30 µM
3. > 30 µM
4. > 30 µM
5. > 30 µM
6. > 30 µM
